test system: Neuro-2a; assay: neurite formation score, plate-normalized to DMSO control mean 5.04 (score (0-8 scale)); higher = more or longer neurites; conditions: 0.1 µM
Please use 1 (yes) whenever neurite formation score is not below 3, and 0 (no) whenever it is.

**Query** Could you please find out whether Cn1cc(C2=C(c3cn(C4CCN(Cc5ccccn5)CC4)c4ccccc34)C(=O)NC2=O)c2ccccc21 has neurite formation score that meets 3 or exceeds it?
**Result** 0 (no)

**Query** Subsequent entry: COc1ccc(N(C(=O)Oc2c(C)cccc2C)c2ccnc(Nc3ccc(N4CCN(C)CC4)cc3)n2)c(OC)c1
**Result** 1 (yes)

**Query** Subsequent entry: COc1cc([C@@H]2c3cc4c(cc3[C@H](O)[C@H]3COC(=O)[C@@H]23)OCO4)cc(OC)c1OC
**Result** 0 (no)

**Query** Subsequent entry: CC(C)(C)c1cc(C=C(C#N)C#N)cc(Br)c1O
**Result** 1 (yes)

**Query** Subsequent entry: O=c1[nH]c2ccc(Cl)cc2c(N[C@@H]2CN3CCC2CC3)c1-c1nc2ccccc2[nH]1
**Result** 1 (yes)

**Query** Subsequent entry: O=c1[nH]c2ccccc2n1C1CCN(Cc2ccc(-c3[nH]c4cc5ncnc5cc4nc3-c3ccccc3)cc2)CC1
**Result** 1 (yes)

* * *

system: Neuro-2a; test: neurite formation score, plate-normalized to DMSO control mean 5.04 (score (0-8 scale)); higher = more or longer neurites; conditions: 1 µM
Please use yes (1) whenever neurite formation score is not below 5, and no (0) whenever it is.

**Query** Could you please find out whether Cn1cc(C2=C(c3cn(C4CCN(Cc5ccccn5)CC4)c4ccccc34)C(=O)NC2=O)c2ccccc21 has neurite formation score that meets 5 or exceeds it?
**Result** no (0)

**Query** Subsequent entry: COc1ccc2c(c[n+](C)c3c4cc5c(cc4ccc23)OCO5)c1OC [Chelerythrine Chloride]
**Result** no (0)

**Query** Subsequent entry: Cc1ccccc1-n1c(Cn2cnc3c(N)ncnc32)nc2cccc(C)c2c1=O
**Result** yes (1)

* * *

system: Neuro-2a; test: neurite formation score, plate-normalized to DMSO control mean 5.04 (score (0-8 scale)); higher = more or longer neurites; details: 1 µM
readout: neurite formation score
Form field (numeric): enter value without unit.

**Query** Need neurite formation score, item CC(C)(C)c1cc(C=C(C#N)C#N)cc(C(C)(C)C)c1O
**Result** 4.96

**Query** Subsequent entry: N#CC(C#N)=Cc1ccc(O)c(O)c1
**Result** 4.91

**Query** Subsequent entry: O=c1[nH]c2ccccc2n1C1CCN(Cc2ccc(-c3[nH]c4cc5ncnc5cc4nc3-c3ccccc3)cc2)CC1
**Result** 4.91
